TARGET: human orexin-2 receptor (Homo sapiens (Human))
EXPERIMENT_DESCRIPTION: Intracellular calcium measurement (FLIPR), CHO cells expressing human orexin-2 receptor, 3 nM orexin-A
Format: cell-based
CONDITIONS_USED: CHO cells expressing human orexin-2 receptor, FLIPR, 3 nM orexin-A; geometric mean if determined several times; read-out: IC50 OX2
Please go through the items and note down their IC50.
Give bare numbers, in nM.

See these solved cases before continuing.
| STRUCTURE_SMILES_STRING | READOUT_UNITS | IC50 |
| --- | --- | --- |
| O=C(c1ncsc1-c1cccc(Cl)c1)N1CCC[C@H]1c1nc(-c2ccccc2OC(F)(F)F)no1 | nM | 80 |
| Cc1c(F)cccc1-c1noc([C@@H]2CCCN2C(=O)c2ccc(Cl)cc2-n2nccn2)n1 | nM | 17 |
| CCOc1c(F)cccc1-c1nc([C@@H]2CCCN2C(=O)c2cc(C)ccc2-n2nccn2)no1 | nM | 2 |
| Cc1ccc(-n2nccn2)c(C(=O)N2CCC[C@H]2c2nc(-c3cccc4ccn(C)c34)no2)c1 | nM | 8 |
| COc1cc(C(=O)N2CCC[C@H]2c2cc(-c3ccccc3OC(F)(F)F)on2)c(-n2nccn2)cc1Cl | nM | 15 |
| COc1c(F)cccc1-c1nc([C@@H]2CCCN2C(=O)c2ccc(C)cc2-n2nccn2)no1 | nM | 4 |

Consider the record given below.
# COc1c(Cl)cccc1-c1nc([C@@H]2CCCN2C(=O)c2ccc(Cl)cc2-n2nccn2)no1 with human orexin-2 receptor (Homo sapiens (Human)): IC50 is 3

----------
TARGET: human orexin-2 receptor (Homo sapiens (Human), UniProt O43614)
Sequence (O43614 whole entry): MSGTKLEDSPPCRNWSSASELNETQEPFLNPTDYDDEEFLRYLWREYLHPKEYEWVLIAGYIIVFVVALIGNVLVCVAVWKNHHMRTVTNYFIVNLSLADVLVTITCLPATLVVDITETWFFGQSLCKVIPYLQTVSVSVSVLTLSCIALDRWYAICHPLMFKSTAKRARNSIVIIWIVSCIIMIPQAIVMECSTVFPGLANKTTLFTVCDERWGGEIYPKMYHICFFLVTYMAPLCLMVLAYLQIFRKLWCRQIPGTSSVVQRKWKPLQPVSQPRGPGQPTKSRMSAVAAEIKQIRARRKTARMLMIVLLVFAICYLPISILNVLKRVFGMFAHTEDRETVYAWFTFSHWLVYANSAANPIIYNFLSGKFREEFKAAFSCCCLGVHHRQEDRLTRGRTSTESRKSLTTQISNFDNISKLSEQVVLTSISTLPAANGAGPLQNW
EXPERIMENT_DESCRIPTION: Intracellular calcium measurement (FLIPR), CHO cells expressing human orexin-2 receptor, 3 nM orexin-A
Type: cell-based
CONDITIONS_USED: CHO cells expressing human orexin-2 receptor, FLIPR, 3 nM orexin-A; geometric mean if determined several times; read-out: IC50 OX2
REPORTED_METRIC: log10 of IC50 (log10 of the value in nM)
Heads up: the numbers are on a log10 scale; they represent IC50 in nM.

See these solved cases before continuing.
| STRUCTURE_SMILES_STRING | log10 of IC50 |
| --- | --- |
| CCOc1ncccc1-c1nc([C@@H]2CCCN2C(=O)c2cc(Cl)ccc2-n2nccn2)no1 | 0.30 |
| Cc1cc(C)cc(-c2cc([C@@H]3CCCN3C(=O)c3cc(C)ccc3-n3nccn3)on2)c1 | 1.59 |
| Cc1onc(-c2ccccc2Cl)c1C(=O)N1CCC[C@H]1c1nc(-c2cccc(Cl)c2C)no1 | 2.77 |

Answer for every listed entry: what is its log10 of IC50? The entries follow.
1. Cc1ccc(-n2nccn2)c(C(=O)N2CCC[C@H]2c2nc(-c3cccnc3Cl)no2)c1
2. Cc1ccc(C(=O)N2CCC[C@H]2c2nc(-c3cccc(Cl)c3C)no2)c(-n2nccn2)c1C
3. CCOc1ncccc1-c1noc([C@@H]2CCCN2C(=O)c2cc(C)ccc2-n2nccn2)n1

1: 1.52; 2: 2.46; 3: 0.85

Answer for every listed entry: what is its log10 of IC50? The entries follow.
1. Cc1c(Cl)cccc1-c1noc([C@@H]2CCCN2C(=O)c2ccc(Cl)cc2-n2nccn2)n1
2. CCc1ccccc1-c1nc([C@@H]2CCCN2C(=O)c2cc(OC)c(Cl)cc2-n2nccn2)no1

1.18
0.48
